Molecular target: KRAS G12C (GMPPNP-loaded, Cys-light, amino acids 1-169) and cRAF Ras-binding domain interaction (Homo sapiens, UniProt P01116, C118S/C51S/C80L/G12C)
Construct: truncated version comprising amino acids 1-169
Sequence (P01116 1-169 isoform P01116-2 G12C/C51S/C80L/C118S): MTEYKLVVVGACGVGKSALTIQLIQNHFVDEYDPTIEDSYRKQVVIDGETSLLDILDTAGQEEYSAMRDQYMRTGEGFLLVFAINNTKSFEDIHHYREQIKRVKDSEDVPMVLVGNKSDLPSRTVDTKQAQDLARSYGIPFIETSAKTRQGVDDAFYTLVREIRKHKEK
Experiment: Inhibition of KRAS G12C and cRAF binding (AlphaScreen)
Conditions: KRAS G12C preloaded with GMPPNP, 2 hours compound incubation, room temperature
pIC50: −log10 of the molar value.
Each record here notes measured pIC50.

// known answers, use as guide
- Cc1cc(/C=C(\F)C(=O)N2CCN(c3nc(OC[C@@]45CCCN4C[C@H](F)C5)nc4c(F)c(-c5cccc(Cl)c5C5CC5)ncc34)C[C@@H]2CC#N)nc(C)n1: > 8.00
- Cc1cc(/C=C(\F)C(=O)N2CC[C@@H](N(C)c3nc(OC[C@@]45CCCN4C[C@H](F)C5)nc4c(F)c(-c5cccc(Cl)c5C5CC5)ncc34)C2)nc(C)n1: > 8.00
- Cc1nccc(/C=C(\F)C(=O)N2CCN(c3nc(OC[C@@]45CCCN4C[C@H](F)C5)nc4c(F)c(-c5cccc6ccc(F)c(F)c56)ncc34)C[C@@H]2CC#N)n1: > 8.00
- CCc1c(F)ccc2cccc(-c3ncc4c(N5CCN(C(=O)/C(F)=C\c6ccnc(C7CC7)n6)[C@@H](CC#N)C5)nc(OC[C@@]56CCCN5C[C@H](F)C6)nc4c3F)c12: 6.30 to 7.00

[ask] Entry "CCc1c(F)ccc2cccc(-c3ncc4c(N5CCN(C(=O)/C(F)=C/c6cc(C)nc(C)n6)[C@@H](CC#N)C5)nc(OC[C@@]56CCCN5C[C@H](F)C6)nc4c3F)c12" has what pIC50?
[reply] > 8.00

---

Target: KRAS G12C (GMPPNP-loaded, Cys-light, amino acids 1-169) and cRAF Ras-binding domain interaction (Homo sapiens, UniProt P01116, C118S/C51S/C80L/G12C)
Construct: truncated version comprising amino acids 1-169
Assay: Inhibition of KRAS G12C and cRAF binding (AlphaScreen)
Conditions: KRAS G12C preloaded with GMPPNP, 2 hours compound incubation, room temperature
endpoint_label: IC50

// known answers, use as guide
• Cc1nccc(/C=C(\F)C(=O)N2CC[C@@H](N(C)c3nc(OC[C@@]45CCCN4C[C@H](F)C5)nc4c(F)c(-c5cccc(Cl)c5C5CC5)ncc34)C2)n1 = < 10 nM
• CN1CCC1/C=C(/F)C(=O)N1CCN(c2nc(OC[C@@]34CCCN3C[C@H](F)C4)nc3c(F)c(-c4cccc5ccc(F)c(Cl)c45)ncc23)C[C@@H]1CC#N (some centres unmarked) = ≥ 500 nM
• Cc1cc(/C=C(\F)C(=O)N2CC[C@@H](N(C)c3nc(OC[C@@H]4CCCN4C)nc4c(F)c(-c5cccc(Cl)c5C5CC5)ncc34)C2)nc(C)n1 = 10 to 100 nM
• Cc1nccc(/C=C(\F)C(=O)N2CCN(c3nc(OC[C@@]45CCCN4C[C@H](F)C5)nc4c(F)c(-c5cccc6cccc(F)c56)ncc34)C[C@@H]2CC#N)n1 = < 10 nM
• Cc1nccc(/C=C(\F)C(=O)N2CCN(c3nc(OC[C@@]45CCCN4C[C@H](F)C5)nc4c(F)c(-c5cccc6ccc(F)c(C)c56)ncc34)C[C@@H]2CC#N)n1 = < 10 nM
• Cc1cc(/C=C(\F)C(=O)N2CCN(c3nc(OC[C@@]45CCCN4C[C@H](F)C5)nc4c(F)c(-c5cccc6cccc(Cl)c56)ncc34)C[C@@H]2CC#N)nc(C)n1 = < 10 nM
• C#Cc1c(F)ccc2cccc(-c3ncc4c(N5CCN(C(=O)/C(F)=C/c6ccnc(C)n6)[C@@H](CC#N)C5)nc(OC[C@@]56CCCN5C[C@H](F)C6)nc4c3F)c12 = < 10 nM
• Cc1nccc(/C=C(\F)C(=O)N2CCN(c3nc(OC[C@@]45CCCN4C[C@H](F)C5)nc4c(F)c(-c5cccc6c(C)c(F)ccc56)ncc34)C[C@@H]2CC#N)n1 = 10 to 100 nM

[ask] Entry "Cc1nsc(/C=C(\F)C(=O)N2CCN(c3nc(OCC45CCCN4CCC5)nc4c3CCN(c3cccc5ccc(F)c(Cl)c35)C4)C[C@@H]2CC#N)n1" has what IC50?
[reply] < 10 nM

[ask] Entry "Cc1cc(/C=C(\F)C(=O)N2CC[C@@H](N(C)c3nc(OC[C@@H]4CCCN4C)nc4c(F)c(-c5cccc6ccc(F)c(F)c56)ncc34)C2)nc(C)n1" has what IC50?
[reply] < 10 nM

[ask] Entry CN1CCC1/C=C(\F)C(=O)N1CCN(c2nc(OC[C@@]34CCCN3C[C@H](F)C4)nc3c(F)c(-c4cccc5ccc(F)c(Cl)c45)ncc23)C[C@@H]1CC#N (some centres unmarked) has what IC50?
[reply] 100 to 500 nM

---

Target: KRAS G12C (GMPPNP-loaded, Cys-light, amino acids 1-169) and cRAF Ras-binding domain interaction (Homo sapiens, UniProt P01116, C118S/C51S/C80L/G12C)
Construct: truncated version comprising amino acids 1-169
Assay: Inhibition of KRAS G12C and cRAF binding (AlphaScreen)
Settings: KRAS G12C preloaded with GMPPNP, 2 hours compound incubation, room temperature
pIC50: −log10 of the molar value.
endpoint_label: pIC50

• COc1nc(N(C)[C@@H]2CCN(C(=O)/C(F)=C/c3cc(C)nc(C)n3)C2)c2cnc(-c3cccc4ccc(F)c(F)c34)c(F)c2n1 = ≤ 6.30
• CN1CCC1/C=C(/F)C(=O)N1CCN(c2nc(OC[C@@]34CCCN3C[C@H](F)C4)nc3c(F)c(-c4cccc5ccc(F)c(F)c45)ncc23)C[C@@H]1CC#N (stereo partly drawn) = ≤ 6.30

[ask] Entry "Cc1nccc(/C=C(\F)C(=O)N2CCN(c3nc(OC[C@@]45CCCN4C[C@H](F)C5)nc4c(F)c(-c5cccc6cccc(Cl)c56)ncc34)C[C@@H]2CC#N)n1" has what pIC50?
[reply] > 8.00

---

Biological target: KRAS G12C (GMPPNP-loaded, Cys-light, amino acids 1-169) and cRAF Ras-binding domain interaction (Homo sapiens, UniProt P01116, C118S/C51S/C80L/G12C)
Construct: truncated version comprising amino acids 1-169
Test: Inhibition of KRAS G12C and cRAF binding (AlphaScreen)
Conditions: KRAS G12C preloaded with GMPPNP, 2 hours compound incubation, room temperature
Experimental: The AlphaScreen technology was used to determine IC50s for compound inhibition of KRAS G12C (present as the Cys-light (C51S, C80L and C118S), truncated version comprising amino acids 1-169) and cRAF interaction. […] IC50s were determined using nonlinear regression fit of [inhibitor] vs. response (4 parameters). A counter assay was also set up to rule out inhibitors of the AlphaScreen technology itself. […] Samples were read and analyzed as above.
pIC50: −log10 of the molar value.
Each record here notes measured pIC50.

// known answers, use as guide
• Cc1cc(/C=C(\F)C(=O)N2CC[C@@H](N(C)c3nc(OC[C@@]45CCCN4C[C@H](F)C5)nc4c(F)c(-c5cccc6ccc(F)c(F)c56)ncc34)C2)nc(C)n1 = > 8.00
• COC(=O)/C=C(\F)C(=O)N1CCC(N(C)c2nc(OCC34CCCN3CCC4)nc3c2CCN(c2cccc4cccc(Cl)c24)C3)C1 (stereo not drawn) = 7.00 to 8.00
• COc1nc(N(C)[C@@H]2CCN(C(=O)/C(F)=C/c3cc(C)nc(C)n3)C2)c2cnc(-c3cc(O)cc(Cl)c3C3CC3)c(F)c2n1 = 6.30 to 7.00

[ask] Entry "C#Cc1c(F)ccc2cccc(-c3ncc4c(N(C)[C@@H]5CCN(C(=O)/C(F)=C/c6cc(C)nc(C)n6)C5)nc(OC[C@@]56CCCN5C[C@H](F)C6)nc4c3F)c12" has what pIC50?
[reply] > 8.00

[ask] Entry "Cc1cc(/C=C(\F)C(=O)N2CCN(c3ncnc4c(F)c(-c5cc(O)cc(Cl)c5C5CC5)ncc34)C[C@@H]2CC#N)nc(C)n1" has what pIC50?
[reply] > 8.00

[ask] Entry "N#CC[C@H]1CN(c2nc(OC[C@@]34CCCN3C[C@H](F)C4)nc3c(F)c(-c4cccc5ccc(F)c(F)c45)ncc23)CCN1C(=O)/C(F)=C\c1ccnc(C2CC2)n1" has what pIC50?
[reply] 7.00 to 8.00

[ask] Entry "Cc1nccc(/C=C(\F)C(=O)N2CCN(c3nc(OC[C@@]45CCCN4C[C@H](F)C5)nc4c(F)c(-c5cccc(Cl)c5C5CC5)ncc34)C[C@@H]2CC#N)n1" has what pIC50?
[reply] > 8.00

[ask] Entry "Cc1nccc(/C=C(\F)C(=O)N2CC(CN(C)c3nc(OC[C@@]45CCCN4C[C@H](F)C5)nc4c(F)c(-c5cccc6cccc(Cl)c56)ncc34)C2)n1" has what pIC50?
[reply] > 8.00
